# Tested on: CCRF-CEM leukemia
# method_description: NCI tumour cell line growth inhibition, 48 h
measurement_name: TGI

Below, 5 compounds whose answers are already recorded.
Return reported TGI; argument: COc1cc(/C=N/NC(=O)c2ccc(NC(C)=O)cc2OC)ccc1O > 100 µM

Another compound to look at: CSC1(C)CC2C(CC1N1CCCCC1)C2(C)C (stereo unspecified) > 100 µM

Another compound to look at: O=C(OC(CNc1c(C(=O)c2ccccc2)c(=O)n(Cc2ccccc2)c(=O)n1Cc1ccccc1)CN1CCOCC1)c1ccccc1 (stereo unspecified) > 100 µM

Another compound to look at: CC1=NC(C(=O)O)Cc2c1[nH]c1ccccc21 (stereo unspecified) > 100 µM

Another compound to look at: Cc1ccc2nc(C=Nc3ccccc3Cl)cc(C)c2c1 52.8 µM

Now look at this entry.
Return reported TGI; argument: C[C@]12CCc3nonc3C1CC[C@@H]1C2CC[C@]2(C)C(=O)CCC12 (stereo partly specified) 57.8 µM

====

# System: COLO 205 colon
# method_description: NCI tumour cell line growth inhibition, 48 h
measurement_name: GI50

Could you share what GI50 was measured for CC(=O)Nc1ccc(-c2csc(Nc3ccc(-c4csc(-c5ccccc5)n4)cc3)n2)cc1 , tested on COLO 205 colon? > 50 µM

Another compound to look at: CC1=C(SCCC(=O)OCC(=O)NCCC[Te]c2ccccc2)C(=O)c2ccccc2C1=O 1.97 µM

Another compound to look at: O=C(OC(CNc1c(C(=O)c2ccccc2)c(=O)n(Cc2ccccc2)c(=O)n1Cc1ccccc1)CN1CCOCC1)c1ccccc1 (stereo not drawn) 46.3 µM

====

# Test system: HT29 colon
# method_description: NCI tumour cell line growth inhibition, 48 h
Measured TGI, listed per entry for reference.

Below, 2 compounds whose answers are already recorded.
Could you share what TGI was measured for CCOC1CN(C)C(=Nc2cccc3ccccc23)S1 (stereo unspecified) , tested on HT29 colon? > 10 µM

Another compound to look at: COC1(OC)C[C@H](C)[C@@]23O[C@]24C2=CC(=O)C=CC2=N[C@H]3C#C/C=C\C#C[C@]14O 1.25 µM

Others:
Could you share what TGI was measured for COc1cc(/C=C/C(=O)c2cc(OC)c(OC)c(OC)c2)ccc1Oc1nc2c(c(=O)n(C)c(=O)n2C)n1C , tested on HT29 colon? 3.9 µM

Another compound to look at: C=C(C)[C@@H]1CC[C@]2(COC(C)=O)CC[C@]3(C)[C@H](CC[C@@H]4[C@@]5(C)CC[C@H](OC(C)=O)C(C)(C)[C@@H]5CC[C@]43C)[C@@H]12 > 50 µM

Another compound to look at: O=C(Nc1ccn(C2CC(O)C(CO)O2)c(=O)n1)c1ccccc1 (stereo unspecified) > 100 µM

Another compound to look at: COc1cc(-n2cncc2-c2ccc3ccccc3c2)cc(OC)c1OC > 70.6 µM

====

# Test system: MCF7 breast
# method_description: NCI tumour cell line growth inhibition, 48 h
measurement_name: TGI (µM)
Report only the number, with the unit µM understood.

Below, 2 compounds whose answers are already recorded.
Return reported TGI; argument: CC12OC(=O)[C@@]3(O)CCC4C(C[C@H]5O[C@]56CC=CC(=O)[C@]46C)C45OC[C@H]6C(=O)O[C@@H]1C[C@@]6(C)[C@H](C4=O)C23O5 (stereo not given in full) 3.3

Another compound to look at: O=C1C=Cc2cscc21 68.1

Now look at this entry.
Return reported TGI; argument: O=C1Nc2c(Cl)cc(Cl)cc2/C1=N/N=C/c1ccccc1O 94.2
